Exercise: for every item that follows, state its recorded IC50.
Tested on: Leishmania donovani
Assay: Antileishmanial activity against Leishmania donovani promastigotes expressing luciferase
Format: functional, organism-based
Reply with just the number (in µg/mL).

### Prompt Suppose we examine the compound O=C(c1c[nH]cn1)c1nccc2c1[nH]c1ccccc12 [DES-N-METHYLXESTOMANZAMINE A] ; what IC50 value has been reported?
### Response 35

### Prompt # lookup: IC50 of Oc1ccc2[nH]c3c(C4=C[C@@]5(O)CC/C=C\CCCCN6CC[C@@H]4[C@@]4(C6)C[C@@]67CC[C@@H](CCCN6[C@H]45)O7)nccc3c2c1 [MANZAMINE X]
### Response 5.7

### Prompt What value of IC50 has been reported for the following compound? O[C@]12C=C(c3nccc4c3[nH]c3ccccc34)C3CCN(CCCC/C=C\CC1)C[C@@]31C[C@]34CC[C@H](CCCN3[C@H]12)O4 (some centres undefined) [6-Deoxymanzamine X]
### Response 3.2

### Prompt What measured IC50 goes with OC1=C[C@@]2(O)CC/C=C\CCCCN3CC[C@@H]1[C@]1(C[C@@H]4/C=C\CCCCN4[C@H]12)C3 [IRCINOL A] ?
### Response 0.9

Attribution: ChEMBL document CHEMBL1146535
